B1: TPR t1 (parent)
chain: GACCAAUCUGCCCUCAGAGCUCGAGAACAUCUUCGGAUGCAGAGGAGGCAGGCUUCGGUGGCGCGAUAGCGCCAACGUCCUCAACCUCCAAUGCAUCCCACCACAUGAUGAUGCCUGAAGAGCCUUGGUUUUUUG

Variants of: B1
Experiment: polymerase ribozyme fitness, log enrichment relative to wild type (log ratio); higher = more active; in vitro selection for triplet polymerase activity
property_measured: polymerase ribozyme fitness (log ratio)
Response field accepts a number only; no unit should be typed.

Study these solved cases before continuing.
GACCAAUCUGACCUCAGAGCUCGAGAACAUCUUCGGAUGCAGAGGAGGCAGGCUUAGGUGGCGCGAUAACGCCAACGUCCUCAGCCUCCAAUGCAUCCCACCACAUGAUGAUGCCUGAAGCGCCUUGGUUUUUUG = -4.27
GACUAAUCUGCCCUCAGAGCUCGAGAACAUCUUCGGAUGCAGAGGAGGCAGGCUUGGGUGGCGCGAUAGAGCCAACGUCCUCAACCUCCAAUGCAUCCCACCACAUGAUGAUGCCUGAAGAGCCUUGGUUUUUUG = -3
GACCAAUCUGCCCUCAUAGCUCGAGAACAUCUUCGGAUGCAGAGGAGGCAGGCUUCGGUGGCGCGAUAGCGCCAACGUCCUCAACCUACAAUGCAUCCCACCACAUGAUGAUGCCUGAAGAGCCUUGGUUUUUUG = -2.77
GACUAAUCUGCCCUCAGAGCUCGAGAACAUCUUCGGAUGCAAAGGAGGCAGGCUUCGGUGGCGCGAUAGCGCCAACGUCCUCAACCUCCAAUGCAUCCCACCACAUGAUGAUGGCUGAAGAGCCUUGGUUUUUUG = -3.21
GACCAAUCUGCCCUCAGACCUCGAGAACAUCUUCGGAUGCAUAGGAGGCAGGCUUCGGUGGUGCGAUAGCGCCAAGGUCCUCAACCUCCAAGGCAUCCCACCACAUGAUGAUGCCUGAAGAGCCUUGGUUUUUUG = -4.02

Retrieve polymerase ribozyme fitness (log ratio) measured for "GACCAAUCUGCCCUCAGAGCUUGAGAACAUCUUCGGAUGCAGAGGAGGCAGGCUUCGGUGGAGCGAUAGCGCCAACGUCCUCAACCUCCAAUGCAUCCCACCACAGGCUGAUGCCUGAAGGUCCUUGGUUUUUUG" and print it.
-7.34

For the variant "GACCAAUCUGCCCUCAGAGCUCGAGGUCAUCUUCGGAUGCAGAGGAGGCAGGCUUCGGUGGCGCGAUAGCGCCGACGUCCUCAACCUCCAAUGCAUCCCACCACAUGAUGAUGCUUGAAGAGCUUUGGUUUUUUG" , report polymerase ribozyme fitness (log ratio).
-5.7

Identify the reported polymerase ribozyme fitness (log ratio) for the following entry. "GACCAAUCUGCCCUCAGAGCUCGAGAACAUCUUCGGAUGCAGAGGCGGCAGGCUUCGGUGGCGCGAUAGCGGCAACGUCCUCAACCUCCAAUGCAUCCCACCACAUGAUGAUGCCUGAAGAGCCUUGGUUUUUUU"
-2.4

Annotate the variant "GACCAAUUUGCCCUCAGAGAUCGAGCACAUCUUCGGAUGCAGAGGAGGCAGGCUUCGGUCGCGCGAUAGCGCCAACGUCCUCAACCUCCAAUGCAUCCCACCACAUGAUGAUGCCUGAAGAGCCUUGGUUUUUUG" with its measured polymerase ribozyme fitness (log ratio).
-5.68

Give me measured polymerase ribozyme fitness (log ratio), please, for this variant: "GACCAAUCUGCCAUCAGAGCUCGAGAACAUCUUCGGAUGCAGAGGAGGCAGGCUUCGGUGGCGCGAUAGCGCCAACGUCCUCAACCUCCAAUGCAUCCCAUCACAUGAUGAUGCCUGAAGAGCCUUGGUUUUUUG"
-2.13

Identify polymerase ribozyme fitness (log ratio) associated with the variant "GACCAAUCUGCCCUCAGAGCUCGAGAACAUCUUCGGAUGCAGAGGAGGGAGGCUUCGGUGGCGCGAUAGCGCCAACGGCCUCAACCUCCAAUGCAUCCCACCACAUGAUGAAGCCUGAAGAGCCUUGGUUUUUUG"
-0.0739

# return recorded polymerase ribozyme fitness (log ratio) for input "GACCAAUCUGCCCUCAGAGCUCGAGAACAUCUUCGGAUGCAGAGGAGGCAGGCUUCGGUGGCGCGAUAGCGCCAACGUCCUCAACCUCAAAUGCAUCCCACCACAUGAUGAUCCCUAAAGAGCCUUGGUUUUUUG"
-5.73

Output polymerase ribozyme fitness (log ratio) of "GACCAAUAUGCCCUCAGAGCUCGAGAACAUCUUCGGAUGCAGAGGAGGAAGGCUUCGGUGGCGCGAUAGCUCCAACGUCCUCAACAUCCAAUGCAUCCCACCACAUGAUGAUGCCUGAAGAACCUUGGUUUUUUG"
-0.666

Note down polymerase ribozyme fitness (log ratio) recorded for "GACCAAUCUGCCCUCAGAGCUCGAGAACAUCUUCGGAUGCAGAGGAGGCAGGCUUCGGUGGCGCGAUACCGCCAACGUCCUCAACCUCCAAUGCAUCCCACCACAUGAUGAUGCCUGAAGAGCCUUGGUAUUUUG"
-1.59

Look up and report measured polymerase ribozyme fitness (log ratio) for this entry: "GACCAUUCUGCCCUCAGAGCUCGAGAACAUCUUCGGAUGCAGAGGAGGCAGGCUUCGGUGGCGCGAUAGCGCCAACGUCCUCAACCUCCAAUGCAUCCCACCACAUGAUGAUGCCUGAAGAGCCUUGGUUUUUUU"
-0.769

Return value of polymerase ribozyme fitness (log ratio) for input "GACCAAUCUGCCCUCAGAGCUCGAGAACAUCUUCGGAUGCAGAGGAGGCAGGCUUCGGUGGCGCGAUAGCGCCAACGUCCUCAACCUCCAAUGCAUCCCACCAAAUGAUGAUGCCUGAAGAGCCUUGAUUUUUUG" , no commentary.
-3.67

Given "GACCAAUCUGCCCUCAGAGCUCGAGAACUUCUUCGGAUGCAGAGGAGGCAGGCUUCGGUGGCGCGAUAGCGCCAACGUCCUCAACCUCCAAUGCAUCCCACCACAUGAUGAUGGCUGAAGAGCCUUGGUUUUUUG" , respond with its polymerase ribozyme fitness (log ratio).
-4.29

Return value of polymerase ribozyme fitness (log ratio) for input "GACCAAUCUGCCCUCAGAGCUCGAGAACAUCUUCGGAUGCAUAGGAGGCAGGCUUCGGUGGCGCGAUAGCGCCAACGUCCUCAACCUCCAAUGCAUCCCACCACAUGAUGAUGCCUGAAGAACCUUGGUUUUUUG" , no commentary.
-1.66

Please look at this variant and report its polymerase ribozyme fitness (log ratio): "GACCAAUCUGCCCUCAGAGCUCGAGAAUAUCUUCGGAUGCAGAGGAGGCAGGCUUCGGUGGCGCGAUAGCGCCAACGUCCUCAACCUCCAAUGCAUCCCACCACAUGAUGUUGCCUGAAGAGCCUUGGUUUUUUG"
-3.7

Name the recorded polymerase ribozyme fitness (log ratio) of the variant listed here: "GACCAAUCUGCCCUCAGAGCUCGAGAACAUCUUCGGAUGCAAAGGAGGCAGGCUUCGGUGGCGCGAUAGCGCCAACGUCCUCAACCUCCAAUGCAUCCUACCACAUGAUGAUGCCUGAAGAGCCUUGGUUUUUUG"
-6.05

Reference source: the RNAGym collection of RNA variant scans (doi:10.1073/pnas.2313332121)
